Test system: HeLa
Measurement Notes: Primary qHTS to identify gynecologic anti-cancer compounds using libraries of approved drugs and bioactive compounds (AID 1345084); also: % is scaled to controls: 0 for no effect and ±100 for the full control effect; nearly all actives have a fitted effect of over 55% in size
Experimental Parameters: Gynecologic cancer cell panel viability, ATPlite luminescence, 48 h; series mostly up to 57.5 µM
Inconclusive results are not listed. The source made the active and inactive calls. Calls follow the shape of the dose curve; as a rule, active = well fitted cell-killing curve with a large enough effect; inconclusive = small, poorly fitted or top-dose-only effect, or effect the other way; inactive = flat fitted curve, though single readings scatter.
Endpoint Label: outcome

Q: What does the record list as outcome for `C[C@H]1NCc2cc(-c3ccc4c(=O)c(C(=O)O)cn(C5CC5)c4c3OC(F)F)ccc21` ?
Result: inactive

Q: What does the record list as outcome for CN1Cc2cc(C(=O)N3CCC(C4CCNCC4)CC3)ccc2NC(CC(=O)O)C1=O (stereo not given) ?
Result: inactive

Q: What does the record list as outcome for `CC(C)OP(=O)(CP(=O)(OC(C)C)OC(C)C)OC(C)C` ?
Result: inactive

Q: What does the record list as outcome for `CC(=O)O[C@@H]1C(=O)O[C@@H]2[C@H]1OC(=O)[C@@H]2OC(C)=O` ?
Result: inactive

Q: What does the record list as outcome for `CC(C)(C)c1cc(C=O)cc(C(C)(C)C)c1O` ?
Result: inactive

Q: What does the record list as outcome for `Cc1cc(OCCOCC[N+](C)(C)Cc2ccccc2)ccc1C(C)(C)CC(C)(C)C` ?
Result: inactive

New cases:
Q: What does the record list as outcome for `Cc1cc(CCCOc2c(C)cc(-c3noc(C(F)(F)F)n3)cc2C)on1` ?
Result: inactive

Q: What does the record list as outcome for CN(CC1(C)CCCO1)S(=O)(=O)c1ccc(Cl)c(S(N)(=O)=O)c1 (stereo not given) ?
Result: inactive

Q: What does the record list as outcome for `O=C(c1ccccc1)c1ccccc1` ?
Result: inactive

Q: What does the record list as outcome for `Cc1oc(=O)oc1COC(=O)[C@@H]1N2C(=O)[C@@H](NC(=O)[C@H](N)c3ccccc3)[C@H]2SC1(C)C` ?
Result: inactive

* * *

System: CRL-7250
Measurement Notes: Cytotoxic Profiling of Annotated Libraries Using Quantitative High-Throughput Screening (AID 1296008); also: % is scaled to controls: 0 for no effect and ±100 for the full control effect; nearly all actives have a fitted effect of over 60% in size
Experimental Parameters: Five cell lines viability, CellTiter-Glo ATP luminescence, 48-72 h; stronger effect = lower value
Results filed as inconclusive are left out.
// reported max response per item
# number only, unit % dropped from output

Q: Checklist item: max response tested on CRL-7250, entry CCN1C(=O)c2ccccc2C1Nc1ccc(OCCN2CCCCC2)cc1 (stereo not given) , value?
Result: -2.5

Q: Checklist item: max response tested on CRL-7250, entry `C[C@@H](O[C@H]1OCCN(Cc2n[nH]c(=O)[nH]2)[C@H]1c1ccc(F)cc1)c1cc(C(F)(F)F)cc(C(F)(F)F)c1` , value?
Result: 4.27

Q: Checklist item: max response tested on CRL-7250, entry `C[C@H](CN1CCCC1)C(=O)c1ccc(C(F)(F)F)cc1` , value?
Result: 3.63

Q: Checklist item: max response tested on CRL-7250, entry `COc1cc(C=O)ccc1O` , value?
Result: -1.68

New cases:
Q: Checklist item: max response tested on CRL-7250, entry `N=C(N)c1ccc(OCCCOc2ccc(C(=N)N)cc2)cc1` , value?
Result: 2.23

Q: Checklist item: max response tested on CRL-7250, entry `OC(CCCN1CCCCC1)(c1ccccc1)c1ccccc1` , value?
Result: -11.1

Q: Checklist item: max response tested on CRL-7250, entry `CC(C)C[C@@H]1[C@H](c2ccccc2)OC(=O)N1CCCN1CCCCCC1` , value?
Result: -2.82

Q: Checklist item: max response tested on CRL-7250, entry `O=C(O)Cc1ccccc1Oc1ccc(Cl)cc1Cl` , value?
Result: 1.12

* * *

Measurement Notes: Vero cells viability qHTS for Zika virus inhibitors (AID 1347167); also: % is scaled to controls: 0 for no effect and ±100 for the full control effect
Experimental Parameters: cytotoxicity counter-screen (Zika); series mostly up to 45.9 µM
Inconclusive results are not listed. Activity calls are given as the source filed them. Calls follow the shape of the dose curve; as a rule, active = well fitted cell-killing curve with a large enough effect; inconclusive = small, poorly fitted or top-dose-only effect; inactive = flat fitted curve, though single readings scatter.
Endpoint Label: outcome

Q: What does the record list as outcome for `CCOC(=O)Cn1cccc1-c1nc(-c2ccc(OC)cc2)c(-c2ccc(OC)cc2)s1` ?
Result: inactive

Q: What does the record list as outcome for `O=C(Nc1ccc(S(=O)(=O)N2CCOCC2)cc1)c1cc(Cl)ccc1NS(=O)(=O)c1ccc(Cl)s1` ?
Result: inactive

Q: What does the record list as outcome for `Cc1nc(C2CCCCC2)c(-c2ccc(S(N)(=O)=O)c(F)c2)o1` ?
Result: inactive

Q: What does the record list as outcome for `CCC(=O)O[C@H]1[C@H](O[C@@H]2[C@@H](C)[C@H](O[C@H]3C[C@@](C)(OC)[C@@H](O)[C@H](C)O3)[C@@H](C)C(=O)O[C@H](CC)[C@@](C)(O)[C@H](O)[C@@H](C)C(=O)[C@H](C)C[C@@]2(C)O)O[C@H](C)C[C@@H]1N(C)C` ?
Result: inactive

* * *

Measurement Notes: qHTS of pediatric cancer cell lines to identify multiple opportunities for drug repurposing: Primary screen for MG 63 (6-TG R) cells (AID 1347105); also: nearly all actives have a fitted effect of over 50% in size
Experimental Parameters: MG 63 (6-TG R) viability, CellTiter-Glo, 48 h; series mostly up to 46 µM
Inconclusive results are not listed. Active and inactive are the calls of the source. Calls come from the whole dose curve; as a rule, active = well fitted cell-killing curve with a large enough effect; inconclusive = small, poorly fitted or top-dose-only effect; inactive = no such curve, though single readings can be large or run the other way.
Can you answer with just one of these options? active, inactive

Here's what some known entries look like.
Q: What outcome does the record of this test show for CC(CC1c2ccccc2CCc2ccccc21)CN(C)C (centres undefined) ?
Result: inactive

Q: What outcome does the record of this test show for `CCC(=O)O[C@H]1[C@H](O[C@@H]2[C@@H](C)[C@H](O[C@H]3C[C@@](C)(OC)[C@@H](O)[C@H](C)O3)[C@@H](C)C(=O)O[C@H](CC)[C@@](C)(O)[C@H](O)[C@@H](C)C(=O)[C@H](C)C[C@@]2(C)O)O[C@H](C)C[C@@H]1N(C)C` ?
Result: inactive

Q: What outcome does the record of this test show for `OCc1c[nH]c2ccccc12` ?
Result: inactive

Q: What outcome does the record of this test show for COc1cc(C(=O)NC2CCCNC2)cc(OC)c1OC (centres undefined) ?
Result: inactive

Q: What outcome does the record of this test show for `CCOC(=O)C(=O)CCCCCCl` ?
Result: inactive

New cases:
Q: What outcome does the record of this test show for `CN1CCC(Nc2ncc3ncnc(Nc4ccc(F)c(Cl)c4)c3n2)CC1` ?
Result: inactive

Q: What outcome does the record of this test show for `COc1ccc2c(c1)c(CC(=O)OC/C=C(\C)CC/C=C(\C)CCC=C(C)C)c(C)n2C(=O)c1ccc(Cl)cc1` ?
Result: inactive

Q: What outcome does the record of this test show for `CCOc1ncc(F)c(=O)[nH]1` ?
Result: inactive

Q: What outcome does the record of this test show for `CCOC(=O)CN1CCCC1=O` ?
Result: inactive

Q: What outcome does the record of this test show for `Cc1ccc2ccc(Cl)cc2n1` ?
Result: inactive

Q: What outcome does the record of this test show for `O=C1NC(c2ccccc2)(c2ccccc2)C(=O)N1COP(=O)(O)O` ?
Result: inactive

Q: What outcome does the record of this test show for `C[C@]12CCC(=O)C=C1CC[C@@H]1[C@@H]2[C@@H](O)C[C@@]2(C)[C@H]1CC[C@]2(O)C(=O)COC(=O)CCC(=O)O` ?
Result: inactive

Q: What outcome does the record of this test show for `Cc1cc2nc3ccc(=[N+](C)C)cc-3sc2cc1N` ?
Result: active

Q: What outcome does the record of this test show for `CC(C)C(=O)OCc1cccc(OC(=O)[C@@H]2N3C(=O)[C@@H](NC(=O)Cc4ccccc4)[C@H]3SC2(C)C)c1` ?
Result: inactive

Q: What outcome does the record of this test show for `Cc1cnc(NS(=O)(=O)c2ccc(N)cc2)nc1` ?
Result: inactive

Q: What outcome does the record of this test show for `O=C1CC2(CCCC2)CC(=O)N1` ?
Result: inactive

Q: What outcome does the record of this test show for `CCCC(=O)O[C@]1(C(=O)COC(=O)CC)CC[C@H]2[C@@H]3CCC4=CC(=O)CC[C@]4(C)[C@H]3[C@@H](O)C[C@@]21C` ?
Result: inactive

Q: What outcome does the record of this test show for `CC(C)C(C)(C)C(C)(C)C(C)(C)S` ?
Result: inactive

Q: What outcome does the record of this test show for `O=C(O)[C@@H](O)[C@H](O)[C@H](O)[C@@H](O)C(=O)O` ?
Result: inactive

Q: What outcome does the record of this test show for `COc1cc2c(cc1OC)C(=O)CC2` ?
Result: inactive

Q: What outcome does the record of this test show for `O=C(O)CCCC[P+](c1ccccc1)(c1ccccc1)c1ccccc1` ?
Result: inactive

Q: What outcome does the record of this test show for `O=C(O)C(=O)Nc1cccc(-c2nn[nH]n2)c1` ?
Result: inactive

Q: What outcome does the record of this test show for `CCN(CC)CC(=O)OCC(=O)[C@@]1(O)CC[C@H]2[C@@H]3CCC4=CC(=O)CC[C@]4(C)[C@H]3[C@@H](O)C[C@@]21C` ?
Result: inactive

Q: What outcome does the record of this test show for `CC(=O)OC/C=C(C)/C=C/C=C(C)/C=C/C1=C(C)CCCC1(C)C` ?
Result: inactive

Q: What outcome does the record of this test show for `C[C@H](CN1CCCC1)C(=O)c1ccc(C(F)(F)F)cc1` ?
Result: inactive

Q: What outcome does the record of this test show for `O=C1c2ccccc2CCc2ccccc21` ?
Result: inactive

Q: What outcome does the record of this test show for `CCCc1ccc(OCC(=O)N2CCN(C(=O)COc3ccc(CCC)cc3OC)CC2)c(OC)c1` ?
Result: inactive

Q: What outcome does the record of this test show for `CCOC(=O)C(=O)CCc1ccccc1` ?
Result: inactive

Q: What outcome does the record of this test show for COc1cc(C(=O)OC(COCCC(C)C)CN2CCOCC2)cc(OC)c1OC (centres undefined) ?
Result: inactive

Q: What outcome does the record of this test show for `COC(=O)c1c(Cl)c(Cl)c(C(=O)OC)c(Cl)c1Cl` ?
Result: inactive

Q: What outcome does the record of this test show for `OC1(c2ccccc2)CCNCC1` ?
Result: inactive

Q: What outcome does the record of this test show for `COc1ccc2c(c1)CCCC2=O` ?
Result: inactive

Q: What outcome does the record of this test show for `CN1CCCN=C1/C=C/c1cccs1` ?
Result: inactive

Q: What outcome does the record of this test show for `CCCCCCCCCCCCCCCCCCN(C)C` ?
Result: inactive
